- systemUnderTest: Der p 1 (Dermatophagoides pteronyssinus (European house dust mite), UniProt P08176)
- Sequence (P08176 99-320): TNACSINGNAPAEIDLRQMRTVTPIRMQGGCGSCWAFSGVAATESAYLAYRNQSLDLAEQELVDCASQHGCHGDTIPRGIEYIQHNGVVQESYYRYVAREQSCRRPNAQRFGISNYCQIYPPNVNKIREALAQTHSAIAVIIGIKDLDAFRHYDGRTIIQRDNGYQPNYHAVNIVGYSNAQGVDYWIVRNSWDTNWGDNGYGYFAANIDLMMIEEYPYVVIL
- measurementProtocol: Der p 1 enzyme activity assay (FRET fluorogenic substrate)
- Type: biochemical
- setupConditions: threshold stated in text; read-out: Der p 1 IC50
# IC50 per record follows

# example entries with known answers
| smilesInput | IC50 |
| --- | --- |
| CC(C)[C@H](NC(=O)[C@H](C)NC(=O)[C@H](Cc1ccccc1)NC(=O)c1ccccc1)C(=O)C(=O)NCCN1CCN(C)CC1 | < 200 nM |
| CC(C)[C@H](NC(=O)[C@H](C)NC(=O)[C@@H](NC(=O)c1ccnc2ccccc12)C12CC3CC(CC(C3)C1)C2)C(=O)C(=O)NCC(=O)N1CCN(C)CC1 | < 20 nM |
| CC(C)[C@H](NC(=O)[C@H](C)NC(=O)[C@H](Cc1ccccc1)NC(=O)c1ccccc1)C(=O)C(=O)N[C@@H](C)c1ccccc1 | < 2000 nM |
| CNC(=O)C(=O)[C@@H](NC(=O)[C@H](C)NC(=O)[C@@H](NC(=O)c1ccccc1)C(C)(C)C)C(C)C | < 200 nM |
| Cc1cc(C(=O)N[C@H](C(=O)N[C@@H](C)C(=O)N[C@H](C(=O)C(=O)NC2CC2)C(C)C)C(C)(C)C)[nH]n1 | < 200 nM |
| CC(C)[C@H](NC(=O)[C@H](C)NC(=O)[C@@H](N1Cc2ccccc2C1=O)C(C)(C)C)C(=O)C(=O)NC1CC1 | < 20 nM |

Ask: Give its IC50 value. Item: CC(C)[C@H](NC(=O)[C@H](C)NC(=O)[C@@H](NC(=O)c1ccncn1)C(C)(C)C)C(=O)C(=O)NC1CCCCC1
Result: < 200 nM

Ask: Give its IC50 value. Item: CC(C)[C@H](NC(=O)[C@H](C)NC(=O)[C@@H](NC(=O)C1CCN(C)CC1)C(C)(C)C)C(=O)C(=O)NCc1ccccc1
Result: < 20 nM

Ask: Give its IC50 value. Item: CC(C)[C@H](NC(=O)[C@H](C)NC(=O)[C@@H](NC(=O)c1cc[nH]c(=O)c1)C(C)(C)C)C(=O)C(=O)NCc1ccccc1
Result: < 200 nM

Ask: Give its IC50 value. Item: CC(C)[C@H](NC(=O)[C@H](C)NC(=O)[C@H](Cc1ccccc1)NC(=O)c1ccccc1)C(=O)C(=O)NC1CCN(C)CC1
Result: < 200 nM

Ask: Give its IC50 value. Item: CC(C)[C@H](NC(=O)[C@H](C)NC(=O)[C@@H](NC(=O)c1ccnc2ccccc12)C(C)(C)C)C(=O)C(N)=O
Result: < 20 nM

Ask: Give its IC50 value. Item: CC(C)[C@H](NC(=O)[C@H](C)NC(=O)[C@@H](NC(=O)c1cccc(OCc2nccn2C)c1)C(C)(C)C)C(=O)C(=O)NC1CCCCC1
Result: < 200 nM
